# Protocol details: in vivo
# Measurement setup: C. elegans
Value type: concentration at 4 days, 1 mM (ng/g)
# value in ng/g; strip the unit string

So what does the record say about concentration at 4 days, 1 mM for `CC(C)(c1ccc(O)cc1)c1ccc(O)cc1` ?
2000
